Hello, the source for this data is PubChem BioAssay, in case you need it.

experiment: AGP1-GFP expression modulators, hit retest, confirmation, cell-based, flow cytometry, S. cerevisiae, cherry picks (AID 2273);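 further: median GFP channel fluorescence over the whole cell population gate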; conditions: S. cerevisiae AGP1-GFP strain, 3 h, at 10 µM
Quantity measured: GFP response, % of DMSO (%)

{"Compound": "CCCCN(CC)S(=O)(=O)c1ccc(C(=O)Nc2nnc(-c3ccccc3Cl)o2)cc1", "Value measured": 92.7}
{"Compound": "C/C(=N\\NC(=O)c1cccc(Br)c1)c1ccc(Br)cc1", "Value measured": 98.8}
{"Compound": "O=C(Nc1nc(-c2ccc(F)cc2)cs1)c1cnccn1", "Value measured": 96.2}
{"Compound": "CCOc1ccc(N/N=C(/C#N)C(N)=O)cc1", "Value measured": 113}
{"Compound": "CCN(CC)Cc1csc2ccc(Br)cc12", "Value measured": 100}
{"Compound": "CSc1nc(N2CCN(c3ccccc3Cl)CC2)c2ccccc2n1", "Value measured": 102}
{"Compound": "O=C(CC1SC(=Nc2ccccc2F)N(CCN2CCOCC2)C1=O)Nc1ccc(F)cc1F (stereo unspecified)", "Value measured": 97.8}
{"Compound": "N=c1ccn(CC(=O)c2ccc(-c3ccccc3)cc2)cc1", "Value measured": 92.1}
{"Compound": "O=C1C=CC(=O)N1c1cccc(-c2ccccc2)c1", "Value measured": 104}
{"Compound": "O=c1cc(-c2c(F)c(F)c(F)c(F)c2F)oc2c(F)c(F)c(F)c(F)c12", "Value measured": 113}
{"Compound": "Cc1nnc(NC(=O)c2ccc(S(=O)(=O)N3CCCCCC3)cc2)o1", "Value measured": 99}
